Biological target: Serine/threonine-protein kinase 3 (Homo sapiens) (UniProt Q13188)
Sequence (Q13188 whole entry): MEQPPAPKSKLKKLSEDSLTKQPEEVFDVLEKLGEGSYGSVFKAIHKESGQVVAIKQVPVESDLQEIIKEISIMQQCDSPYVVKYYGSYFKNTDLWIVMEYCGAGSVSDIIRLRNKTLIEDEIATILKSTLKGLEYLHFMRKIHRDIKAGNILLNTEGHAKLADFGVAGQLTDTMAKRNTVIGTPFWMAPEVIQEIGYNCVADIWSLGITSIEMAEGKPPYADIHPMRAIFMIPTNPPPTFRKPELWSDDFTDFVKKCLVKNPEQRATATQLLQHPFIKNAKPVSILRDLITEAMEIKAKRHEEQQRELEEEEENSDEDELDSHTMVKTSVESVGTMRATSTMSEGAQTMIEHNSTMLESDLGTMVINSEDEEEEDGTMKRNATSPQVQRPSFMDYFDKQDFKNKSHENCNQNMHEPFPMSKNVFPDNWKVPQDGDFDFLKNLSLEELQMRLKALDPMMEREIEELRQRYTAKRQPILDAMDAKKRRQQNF
Conditions: at 1 µM
Exercise: state measured residual activity for each of the molecules provided.
Numbers only, in %.

Below: 10 molecules and their reported residual activity.
O=[N+]([O-])c1ccc(-c2nc(-c3ccc(F)cc3)c(-c3ccncc3)[nH]2)cc1
110
C[C@@H](N)[C@H]1CC[C@H](C(=O)Nc2ccncc2)CC1
111
CN(C)c1ccc(/C=C2\C(=O)Nc3ccccc32)cc1
108
c1ccc2c(-c3ccncc3)c[nH]c2c1
103
CO[C@@H]1[C@H](N(C)C(=O)c2ccccc2)C[C@H]2O[C@]1(C)n1c3ccccc3c3c4c(c5c6ccccc6n2c5c31)C(=O)NC4
3
O=C1NC(=O)/C(=C/c2ccc3c(c2)OC(F)(F)O3)S1
106
CCC(=O)Nc1ccc2ncnc(Nc3cccc(Br)c3)c2c1
121
Cn1cc(/C=C2\C(=O)Nc3ccc(S(N)(=O)=O)cc32)c2ccccc21
27
Oc1ccc(Nc2nc(-c3ccc(Cl)cc3)cs2)cc1
101
Ic1cccc(CSc2nnc(-c3ccncc3)o2)c1
39

Batch request: residual activity per item, same order as input.
1. CCN(CC)CCCCN1c2ccccc2Oc2ccc(Cl)cc21
2. Cc1nc2cc3nc(-c4cccs4)cnc3cc2n1C

1. 118
2. 107

---

Exercise: state measured residual activity for each of the compounds provided.
Molecular target: Serine/threonine-protein kinase pim-1 (Homo sapiens)
Conditions: at 10 µM
Give bare numbers, in %.

CC#CC(=O)Nc1cc2c(Nc3ccc(F)c(Cl)c3)ncnc2cn1
101
CO[C@H]1C[C@@H]2CC[C@@H](C)[C@@](O)(O2)C(=O)C(=O)N2CCCC[C@H]2C(=O)O[C@H]([C@H](C)C[C@@H]2CC[C@@H](O)[C@H](OC)C2)CC(=O)[C@H](C)/C=C(\C)[C@@H](O)[C@@H](OC)C(=O)[C@H](C)C[C@H](C)/C=C/C=C/C=C/1C
141
CCOc1cc2ncnc(Nc3cccc(Br)c3)c2cc1OCC
57
CO[C@H]1[C@@H](OC)C[C@H](C)[C@@H](OC)C2=CC(=O)C=C(NC(=O)/C(C)=C/C=C/[C@H](OC)[C@@H](OC(N)=O)/C(C)=C/[C@@H]1C)C2=O
93

Okay, next one:
// query residual activity value for entry c1ccc2c(-c3ccncc3)c[nH]c2c1 49

---

Target: Rhodopsin kinase GRK7 (Homo sapiens)
Sequence (whole entry): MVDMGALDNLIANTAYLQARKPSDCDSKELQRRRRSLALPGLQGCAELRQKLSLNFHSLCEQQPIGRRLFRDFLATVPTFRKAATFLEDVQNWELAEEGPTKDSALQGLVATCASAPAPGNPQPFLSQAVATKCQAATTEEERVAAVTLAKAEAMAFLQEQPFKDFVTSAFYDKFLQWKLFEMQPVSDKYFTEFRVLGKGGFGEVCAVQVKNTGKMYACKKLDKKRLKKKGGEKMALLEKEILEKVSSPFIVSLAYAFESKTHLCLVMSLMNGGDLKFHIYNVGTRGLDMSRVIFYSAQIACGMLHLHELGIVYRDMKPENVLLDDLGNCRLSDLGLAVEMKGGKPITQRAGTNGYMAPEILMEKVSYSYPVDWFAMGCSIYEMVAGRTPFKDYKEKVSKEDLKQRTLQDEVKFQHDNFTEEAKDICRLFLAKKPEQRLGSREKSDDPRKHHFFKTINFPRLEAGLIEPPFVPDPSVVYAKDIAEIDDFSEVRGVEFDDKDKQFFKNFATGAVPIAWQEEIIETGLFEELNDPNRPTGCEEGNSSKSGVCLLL
Conditions: at 10 µM
Label condition met when residual activity < 90%; otherwise condition not met.

Record excerpt, results attached:
COc1ccc(C(=O)Nc2sc3c(c2C(N)=O)CCCC3)cc1OC
condition met
O=C1c2ccccc2-[n+]2ccc3c([nH]c4ccccc43)c21
condition met
CNc1cc2c(Nc3cccc(Br)c3)ncnc2cn1
condition met
Oc1n[nH]c2nnc(-c3c(-c4ccccc4)nn4ccccc34)cc12
condition met

Does the reported residual activity of the following compound sit strictly below 90%? COc1ccc(S(=O)(=O)N(CCO)c2ccccc2CN(C)C/C=C/c2ccc(Cl)cc2)cc1 condition met

Does the reported residual activity of the following compound sit strictly below 90%? COc1cc2ncnc(Nc3ccc(NC(=O)c4ccccc4)cc3)c2cc1OC condition not met

Does the reported residual activity of the following compound sit strictly below 90%? CC(=O)O/N=C1\C(=C2\C(=O)Nc3cc(Br)ccc32)Nc2ccccc21 condition met

Does the reported residual activity of the following compound sit strictly below 90%? CC(C)n1cnc2/c(=N/c3cccc(Cl)c3)nc(NCCO)[nH]c21 condition met

Does the reported residual activity of the following compound sit strictly below 90%? O=C1NC(=O)c2c1c1c3ccccc3[nH]c1c1[nH]c3cc(Br)ccc3c21 condition met
